Value source: patent US20180172692A1

# Assayed system: T1, Epidermal growth factor receptor 2 (HER2 or ErbB-2) on HER2+ SKOV3 cells (human, UniProt P04626 23-1255)
# T1 construct: whole, on cells; Only claim 72 calls it 'human epidermal growth factor receptor 2 (HER2)'
# Test summary: split-luciferase complementation on HER2+ SKOV3 cells (lysates, washed); paired with PertH-β9
Readout kind: Signal-to-Background (Ratio of Relative Luminescence Units) (ratio)
Field: numeric (ratio). Do not append units.

*Q* Consider the binder G3-β10* (designed binder, DARPin fusion expressed in E. coli; Used as lysate in the screen and later IMAC-purified; also called DARPin G3 with C-terminal β10*) MRGSHHHHHHGSDLGKKLLEAARAGQDDEVRILMANGADVNAKDEYGLTPLYLATAHGHLEIVEVLLKNGADVNAVDAIGFTPLHLAAFIGHLEIAEVLLKHGADVNAQDKFGKTAFDISIGNGNEDLAEILQKLNGGGSGGGGSGGGGSGVSGWRLFKKIS and give its measured Signal-to-Background (Ratio of Relative Luminescence Units).
*A* 103
